Test system: NCI/ADR-RES ovarian
procedureSummary: NCI-60 one-dose screen, 48 h (100 = growth as untreated, 0 = no growth, -100 = all killed)
testParameters: 10 µM unless noted
Compounds without any hit were thinned out: in the full panel of roughly 83,000, 20% have a hit.
observationType: growth (%)
Write down the numeric answer in % and omit the unit.

> print(dat)
                                   compound   targetortestsystem  observationtype  unitsymbol  datavalue
1  O=C1CCCC2=C1C(c1c[nH]c3ccc(Br)cc13)Cc1cc(Br)ccc1N2 (stereo not given)  NCI/ADR-RES ovarian           growth           %       21.4
2  Cc1ccc(-c2cc3nc(C(Cl)Cl)nc(-c4cccs4)n3n2)cc1  NCI/ADR-RES ovarian           growth           %       58.3
3  NC(N)=Nc1ccc(Oc2cccc(NC(N)=Nc3ccc(Br)c(C(F)(F)F)c3)c2)cc1  NCI/ADR-RES ovarian           growth           %       96.8
4  Clc1cccc(/C=N/Nc2nc(N/N=C/c3cccc(Cl)c3Cl)nc(N3CCCCC3)n2)c1Cl  NCI/ADR-RES ovarian           growth           %       67.4

Then there is this compound:
Param request: growth | system NCI/ADR-RES ovarian | item CC(=O)c1cc(C(=O)c2ccc(Br)cc2)n2cc(C)cc(C)c12
86.3

---

Test system: HCT-116 colon
procedureSummary: NCI-60 one-dose screen, 48 h
testParameters: 10 µM unless noted
The panel holds about 83,000 compounds, 20% with a hit somewhere; the sample as a whole holds those more often. Calls of active or inactive are those of the source. Rule for the calls: active = growth percent below 10; inactive = the rest.
I would appreciate it if you answered using one of these outcomes: active, inactive

> print(dat)
                                   compound  targetortestsystem  assignedcategory
1  NC(N)=Nc1ccc(Oc2cccc(Nc3ccc(Cl)cc3)c2)cn1       HCT-116 colon            active

Please let me know the test result on file for COc1c(N2CC3CCCNC3C2)c(F)cc2c(=O)c(C(=O)N/N=C/c3ccc(N(C)C)cc3)cn(C3CC3)c12 (configuration not stated) .
inactive

Please let me know the test result on file for NC(N)=Nc1ccc(Oc2cccc(Nc3ccc(Br)c(C(F)(F)F)c3)c2)cn1 .
active

---

Tested on: OVCAR-5 ovarian
procedureSummary: NCI-60 one-dose screen, 48 h (100 = growth as untreated, 0 = no growth, -100 = all killed)
testParameters: 10 µM unless noted
Compounds without any hit were thinned out: in the full panel of roughly 83,000, 20% have a hit.
Recorded measurements of growth, one per entry
Write down the numeric answer in % and omit the unit.

Use the examples below as a reference point.
> print(dat)
                                   molecule  observationtype  unitsymbol  datavalue
1  Nc1nc(N)c2c(n1)NC(c1ccc(Cl)cc1)CC(c1ccc(Nc3nc(NCCO)nc(N4CCOCC4)n3)cc1)=N2 (centres undefined)           growth           %       96.7
2  Cc1cc(C)c2sc(=O)n(Cc3nnc(SCCC(=O)O)o3)c2n1           growth           %       99.4
3  Cc1ccc(-n2cc(/C=N/NC(=O)c3ccncc3)c(-c3ccc(S(C)(=O)=O)cc3)n2)cc1           growth           %        103
4  CC1=CC(=O)C2=C(C)CC(OC(=O)CCc3ccccc3)[C@@H]3[C@H](OC(=O)[C@@H]3C)[C@@H]12 (some centres undefined)           growth           %       95.9
5  O=S(=O)(NCCNc1nccc(-n2cnc3ccccc32)n1)c1ccc(Br)cc1           growth           %         94

Using the record for CCOC(=O)c1c(Nc2ccccc2)nn2c(-c3ccc(Cl)cc3)ccnc12 , state its measured growth.
87.2

Using the record for O=C(O)c1ccc(-n2cc(CNc3cccc(Cl)c3)c(-c3ccc(F)cc3)n2)cc1 , state its measured growth.
112

Using the record for NC(N)=Nc1ccc(Oc2cccc(NC(N)=Nc3ccc(Cl)c(C(F)(F)F)c3)c2)cc1 , state its measured growth.
48.1

Using the record for O=C1CCCC2=C1C(c1c[nH]c3ccc(Br)cc13)Cc1cc(Br)ccc1N2 (centres undefined) , state its measured growth.
66.2

---

Tested on: SW-620 colon
procedureSummary: NCI-60 one-dose screen, 48 h (100 = growth as untreated, 0 = no growth, -100 = all killed)
testParameters: 10 µM unless noted
Protocol: Growth inhibition of the SW-620 human tumor cell line is measured as a screen for anti-cancer activity. Cells are grown in 96 well plates and exposed to the test compound for 48 hours. Compounds are tested at a single concentration, which is 10^-5 M for most compounds. The reported endpoint is percent growth (GI% or GIPRCNT), where numbers from 0 - 100% represent growth inhibition, and numbers from -100% - 0 represent cell death. For example, a value of 40 represents 60% growth inhibition. […]
Compounds without any hit were thinned out: in the full panel of roughly 83,000, 20% have a hit.
Recorded measurements of growth, one per entry
Write down the numeric answer in % and omit the unit.

Use the examples below as a reference point.
> print(dat)
                                    compound  observationtype  datavalue
 1  COc1cc(Cn2cc3c(c2)-c2onc(CN4CCOCC4)c2CC3)cc(OC)c1OC           growth        112
 2  COc1cccc(N2CCN(c3ncnc4c3[nH]c3ccc(F)cc34)C[C@H]2C)c1           growth       95.9
 3  O=C(NNc1nc2cc(F)ccc2n2c(CO)ccc12)c1cnccn1           growth       21.3
 4  CN1CCN(Cc2ccc(NC(=O)c3cncc(C#Cc4cnc5ccc(OCC6(C)COC6)nn45)c3)cc2C(F)(F)F)CC1           growth      -44.8
 5  CCCCCc1ccc(S(=O)(=O)Nc2cccc(-c3csc(NC(=O)CN4CCN(CCO)CC4)n3)c2)cc1           growth       74.3
 6         C#CCC#CCN1CCC[C@H]1C(=O)NCC(=O)OC           growth        113
 7  CC1(C)CC[C@]23CC[C@]4(C)[C@H](CC[C@@H]5[C@@]6(C)CCCN(CO)C(C)(C)[C@@H]6CC[C@]54C)[C@H]2[C@H]1OC3           growth       9.58
 8  CC(=O)c1cc(C(=O)c2ccc(Br)cc2)n2cc(C)cc(C)c12           growth        103
 9  Cc1ccc(N2C(=O)/C(=C/C=C/c3ccco3)SC2=S)cc1           growth       90.1
10        CN1c2ccccc2Sc2cc(C=C(C#N)C#N)ccc21           growth       90.9

Then there is this compound:
Param request: growth | system SW-620 colon | item Cn1cc(-c2nc(N)nnc2-c2c[nH]c3ccc(Br)cc23)c2cc(Br)ccc21
29.2

---

Recorded measurements of growth, one per entry
Tested on: SK-MEL-28 melanoma
procedureSummary: NCI-60 one-dose screen, 48 h (100 = growth as untreated, 0 = no growth, -100 = all killed)
testParameters: 10 µM unless noted
This is part of a sample that, as a whole, favours compounds with a hit. Of some 83,000 tested, about 20% had one in any assay.
Write down the numeric answer in % and omit the unit.

> print(dat)
                      structuresmilesstring  targetortestsystem  datavalue
1  COc1ccc2[nH]cc(-c3csc4nc(-c5ccccc5)cn34)c2c1  SK-MEL-28 melanoma       73.8
2  COc1ccc(Cn2cc3c(c2-c2cc(OC)c(OC)c(OC)c2)CCc2c(CN4CCCC4)noc2-3)cc1  SK-MEL-28 melanoma       60.9
3  C=CCN(C)S(=O)(=O)/N=C1\NC(=O)NC1=C(Cl)Cl  SK-MEL-28 melanoma      -83.6
4  CCCCCc1ccc(S(=O)(=O)Nc2cc(-c3csc(NC(=O)CN4CCN(CCO)CC4)n3)ccc2OC)cc1  SK-MEL-28 melanoma      -60.5

Then there is this compound:
Using the record for O=C(Nc1cccc(Cl)c1)Nc1nc2ccc([N+](=O)[O-])cc2o1 , state its measured growth.
26

---

Recorded measurements of growth, one per entry
Test system: OVCAR-3 ovarian
procedureSummary: NCI-60 one-dose screen, 48 h (100 = growth as untreated, 0 = no growth, -100 = all killed)
testParameters: 10 µM unless noted
The panel holds about 83,000 compounds, 20% with a hit somewhere; the sample as a whole holds those more often.
Write down the numeric answer in % and omit the unit.

Use the examples below as a reference point.
> print(dat)
                                   compound  observationtype  datavalue
1  CCn1c(SCC(=O)Nc2cccc(C(=O)/C=C/c3ccc(C)cc3)c2)nc2ccccc2c1=O           growth       43.9
2  CCCCCc1ccc(S(=O)(=O)Nc2cccc(-c3csc(NC(=O)CNCCN(C)C)n3)c2)cc1           growth       87.7
3  N#Cc1c(-c2cccs2)cc(-c2cnccn2)nc1SCC(=O)c1ccc(F)cc1           growth        118
4  COc1ccc2c(c1)Oc1nc(N)c(C#N)c(N)c1C2Sc1ccc(C)cc1 (centres undefined)           growth      -77.1
5  COc1ccc(-c2cc(-c3ccc(Cl)cc3)c(C#N)c(=O)n2Cc2ccc(C(=O)O)cc2)cc1           growth       6.02

Using the record for CCO/C=N/C1=C(C#N)C(c2ccc(F)cc2)c2sc3c(CC)cccc3c2O1 (centres undefined) , state its measured growth.
-17.4
